System: SNB-75
Assay: NCI tumour cell line growth inhibition, 48 h
Activity calls are given as the source filed them. No stated cut-off is given here; in the data, active = GI50 up to about 1.1 µM and inactive = higher.
Bench note: report the call from active, inactive

Write down the call the test reported for this compound. Item: `COC1(OC)C=CC(=O)C=C1`
inactive

Identify the outcome logged in this assay for the compound shown: `CCN1C/C(=C\c2ccc(Cl)cc2)c2nc(N)c(C#N)c(-c3ccc(Cl)cc3)c2C1`
inactive

Further cases:
Entry `Cc1nn2c(C(=O)N/N=C/c3ccccc3O)c(C)nc2s1` : call = ?
inactive

For CC(=O)OCC1OC(SC2=NC(=O)/C(=C/c3ccccc3)S2)C(OC(C)=O)C(OC(C)=O)C1OC(C)=O (stereo not given) , which call appears in the assay record?
inactive

Given O=C1CCC2CCOc3ccc(O)c1c32 (stereo not given) , state the outcome it received in this test.
inactive

Entry O=C1CCCCCC1CC(Sc1ccccc1)Sc1ccccc1 (stereo not given) : call = ?
inactive

Recorded call for C=C1CC[C@@H](Br)C(C)(C)[C@]12CCC(C)(O)C(Cl)C2 (stereo not given in full) ?
inactive

Name the outcome recorded for `CC(=O)O[C@H]1C(=O)[C@@]2(C)[C@H]([C@H](OC(=O)c3ccccc3)[C@]3(O)C[C@H](OC(=O)[C@H](O)[C@@H](NC(=O)C(C)(C)C)c4ccccc4)C(C)=C1C3(C)C)[C@]1(OC(C)=O)CO[C@@H]1C[C@@H]2O` in the assay.
active

Lab log entry: `CN(C)CC/C(=N\Nc1c(Cl)cccc1Cl)c1ccccc1` — outcome as called in the assay?
inactive

Give the logged outcome of this assay for the following compound: `CCOc1ncn(-c2ccc(NC(=S)Nc3cccc(O)c3)cc2)n1`
inactive

Please indicate how the test categorized `Cc1c(C)c(C)c(-n2[nH]c(=O)n(C)c2=O)c(C)c1C` .
inactive
